# protocol.details: chemical genetic growth profiling, strain panel (AID 1159580);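 note: tested at 20 µM; growth read once vehicle control cultures reached saturation at 30 °C; 1 = growth at the plate median or of vehicle wells; lower values mean less growth of the strain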
# assay.conditions: S. cerevisiae deletion strains, growth OD, locus YDL185W, strain tfp1, active compounds read low
In all, about 5,500 compounds went through this assay and about 2,000 (36%) were called active. Not shown: some 18% with an inconclusive outcome. This is one part of the list.
Would you kindly list normalized growth for each of these compounds?
Answers are plain numbers.

Worked set:
| compound | normalized growth |
| --- | --- |
| OCCN(CCO)c1nc(N2CCCCC2)c2nc(N(CCO)CCO)nc(N3CCCCC3)c2n1 | 0.995 |
| COc1cc(O)c(C(=O)c2ccccc2)cc1O | 0.972 |

Provide each entry's normalized growth from the list below.
1. NC(=O)c1ncn([C@@H]2O[C@H](CO)[C@@H](O)[C@H]2O)c1O
2. C1CCc2nnnn2CC1
3. CCCCOc1ccc(C(=O)CCN2CCCCC2)cc1

OUTPUT:
1.01
1.01
0.961

Provide each entry's normalized growth from the list below.
1. CCCCCC(C)N (centres undefined)
2. N=c1nc(N2CCCCC2)cc(N)n1O
3. OC(CCN1CCCCC1)(c1ccccc1)c1ccccc1
4. CC1(C)S[C@@H]2[C@H](NC(=O)[C@H](NC(=O)N3CCNC3=O)c3ccccc3)C(=O)N2C1C(=O)O (some centres undefined)
5. Cc1ccc(C(=O)C(C)CN2CCCCC2)cc1 (centres undefined)
6. CCC(C(=O)O)c1ccccc1 (centres undefined)

OUTPUT:
[0.999, 0.978, 1.01, 0.952, 1.02, 0.984]

Provide each entry's normalized growth from the list below.
1. CNC1(C)C2CCC(C2)C1(C)C (centres undefined)
2. COc1cc2c(cc1OC)C(=O)C(CC1CCN(Cc3ccccc3)CC1)C2 (centres undefined)
3. O[C@H]1C=C2CCN3Cc4cc5c(cc4C(C23)[C@@H]1O)OCO5 (some centres undefined)
4. CC[C@@H](CO)NCCN[C@@H](CC)CO

OUTPUT:
[0.968, 0.998, 0.965, 1]
